# System: RXF 393 renal
# assay protocol: NCI-60 one-dose screen, 48 h
# cond: 10 µM unless noted
The panel holds about 83,000 compounds, 20% with a hit somewhere; the sample as a whole holds those more often. Activity calls are given as the source filed them. How the source made its calls: active means growth percent below 10; inactive means the rest.
Your reply should match one of these outcome classes. active, inactive

O=c1ccccc(-c2ccc(Br)cc2)c1O ... inactive
C#CCOc1ccc2ncnc(NCc3cccc(NC(=O)CCl)c3)c2c1 ... inactive
CCCOc1cc2ccccc2cc1C(=O)Nc1nc(NC)c2c(ccc3nccc32)[nH]1 ... active

Q. Per the assay record, what outcome was assigned to COc1ccc(SC2c3ccc(C)cc3Oc3nc(N)c(C#N)c(N)c32)cc1 (stereo not drawn) ?
A. active
